Biological target: T1, endothelin A receptor (ETaR) (Homo sapiens (assumed), UniProt P25101)
T1 construct: endothelin A receptor (ETaR), a GPCR; plasmid and cells were gifts from Gmax Biopharm LLC; also called GPCR; ETaR-expressing CHO cells; source: CHO cells stably expressing and displaying ETaR (provided by Gmax Biopharm LLC); on cells, and in vesicles prepared from them
T1 sequence (P25101 21-427): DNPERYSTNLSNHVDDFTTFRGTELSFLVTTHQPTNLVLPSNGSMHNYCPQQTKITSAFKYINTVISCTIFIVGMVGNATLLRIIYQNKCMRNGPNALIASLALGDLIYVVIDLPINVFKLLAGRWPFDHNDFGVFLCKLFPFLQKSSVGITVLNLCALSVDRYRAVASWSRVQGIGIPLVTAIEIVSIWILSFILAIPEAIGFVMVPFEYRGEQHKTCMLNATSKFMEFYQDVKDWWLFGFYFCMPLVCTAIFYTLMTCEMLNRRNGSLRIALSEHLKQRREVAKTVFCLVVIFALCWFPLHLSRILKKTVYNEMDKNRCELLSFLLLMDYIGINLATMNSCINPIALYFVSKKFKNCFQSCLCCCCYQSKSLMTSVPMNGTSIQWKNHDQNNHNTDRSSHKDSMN
Experiment: flow cytometry on cells; purified scFv-His at 1 to 316 nM on ETaR-expressing CHO cells, 1 h at 4 °C; FITC-conjugated anti-His; Kd from the dose-response curve (GraphPad PRISM 5.0)
Settings: one partner purified
# Kd per record follows
The answer is to be given in nM; state only the numeric part.

Known Kd results, listed for orientation:
binder	readingUnit	Kd
anti-GPCR (ETaR) antibody 80H4, scFv-His, wild type (scFv, V domains shown, heavy-chain variable region of 80H4; (G4S)3 linker; light-chain variable region of 80H4; Order HV-(G4S)3-LV; made with a signal peptide (SP); also called WT; anti-GPCR-scFv-His; source: Expi293F, transfected, purified from supernatant (Ni-NTA); not shown: His tag, C-terminal, kept) VH: EVQLLESGGGLVQPGGSLRLSCAASGFTFSSYGMSWVRQAPGKGLEWVSAISTNGATAYYADSVKGRFTISRDNSKNTLYLQMNSLRAEDTAVYYCATEKGAMGYWGQGTLVTVSS VL: DIVMTQTPLSLSVTPGQPASISCRSSQNIVHSTGNTYLEWYLQKPGQSPQLLIYKVSNRFSGVPDRFSGSGSGTDFTLKISRVEAEDVGVYYCFQGSHFPFTFGQGTKVEIK	nM	169
anti-GPCR (ETaR) antibody 80H4, scFv-His, mutant N28Y (scFv, V domains shown, heavy-chain variable region as in m3; (G4S)3 linker; light-chain variable region as in m3; source: Expi293F, transfected, purified from supernatant (Ni-NTA); not shown: His tag, C-terminal, kept) VH: EVQLLESGGGLVQPGGSLRLSCAASGFTFSSYGMSWVRQAPGKGLEWVSAISTNGATAYYADSVKGRFTISRDNSKNTLYLQMNSLRAEDTAVYYCATEKGAMGYWGQGTLVTVSS VL: DIVMTQTPLSLSVTPGQPASISCRSSQYIVHSTGNTYLEWYLQKPGQSPQLLIYKVSNRFSGVPDRFSGSGSGTDFTLKISRVEAEDVGVYYCFQGSHFPFTFGQGTKVEIK	nM	83.5
anti-GPCR (ETaR) antibody 80H4, scFv-His, mutant T113A-V64M-N28Y (scFv, V domains shown, heavy-chain variable region as in m3; (G4S)3 linker; light-chain variable region as in m3; Combination of N28Y and T113A-V64M made by the authors; source: Expi293F, transfected, purified from supernatant (Ni-NTA); not shown: His tag, C-terminal, kept) VH: EVQLLESGGGLVQPGGSLRLSCAASGFTFSSYGMSWVRQAPGKGLEWVSAISTNGATAYYADSMKGRFTISRDNSKNTLYLQMNSLRAEDTAVYYCATEKGAMGYWGQGTLVAVSS VL: DIVMTQTPLSLSVTPGQPASISCRSSQYIVHSTGNTYLEWYLQKPGQSPQLLIYKVSNRFSGVPDRFSGSGSGTDFTLKISRVEAEDVGVYYCFQGSHFPFTFGQGTKVEIK	nM	22.4

Lab note: next binder to report on.
## Input I have this binder here, anti-GPCR (ETaR) antibody 80H4, scFv-His, mutant T113A-V64M (scFv, V domains shown, heavy-chain variable region as in m3; (G4S)3 linker; light-chain variable region as in m3; source: Expi293F, transfected, purified from supernatant (Ni-NTA); not shown: His tag, C-terminal, kept) VH: EVQLLESGGGLVQPGGSLRLSCAASGFTFSSYGMSWVRQAPGKGLEWVSAISTNGATAYYADSMKGRFTISRDNSKNTLYLQMNSLRAEDTAVYYCATEKGAMGYWGQGTLVAVSS VL: DIVMTQTPLSLSVTPGQPASISCRSSQNIVHSTGNTYLEWYLQKPGQSPQLLIYKVSNRFSGVPDRFSGSGSGTDFTLKISRVEAEDVGVYYCFQGSHFPFTFGQGTKVEIK , and I need its recorded Kd.
## Output 87
